test system: Phakopsora pachyrhizi (F129L); test: Protective control of soybean rust on soybeans (PHAKPA P6); type: in vivo; settings: protective P6, 4 ppm, soybean rust F129L
Assay Metric: % PHAKPA (F129L) Disease level P6 at 4 ppm (%)
Numbers only, in %.

Solved cases below.
IN: Provide measured % PHAKPA (F129L) Disease level P6 at 4 ppm value, entry: C=C(C)c1cccc(/C(=N\OC)C(=O)NC)c1CO/N=C(\C)c1ccccc1 [compound 399]
OUT: 90

IN: Provide measured % PHAKPA (F129L) Disease level P6 at 4 ppm value, entry: CNC(=O)/C(=N/OC)c1cccc(C)c1CO/N=C(\C)c1c(F)ccc(C(F)(F)F)c1F [compound 162]
OUT: 1

IN: Provide measured % PHAKPA (F129L) Disease level P6 at 4 ppm value, entry: CO/N=C(/C(=O)OC)c1cccc(C)c1CO/N=C(\C)c1c(F)cccc1F [compound 213]
OUT: 40

IN: Provide measured % PHAKPA (F129L) Disease level P6 at 4 ppm value, entry: CO/C=C(/C(=O)OC)c1cccc(C)c1CO/N=C(\C)c1ccc(-c2ccc(F)cc2)cc1C(F)(F)F [compound 432]
OUT: 13

IN: Provide measured % PHAKPA (F129L) Disease level P6 at 4 ppm value, entry: CNC(=O)/C(=N/OC)c1cccc(C)c1CO/N=C(\C)c1ccccc1C(F)F [compound 298]
OUT: 97

IN: Provide measured % PHAKPA (F129L) Disease level P6 at 4 ppm value, entry: CNC(=O)/C(=N/OC)c1cccc(C)c1CO/N=C(\C)c1cccc(F)c1 [compound 85]
OUT: 0

For the 7 molecules below, give their % PHAKPA (F129L) Disease level P6 at 4 ppm values.
1. COC=C(C(=O)OC)c1cccc(C)c1CON=C(C)c1ccccc1OC(F)(F)F [compound 462]
2. CO/N=C(/C(=O)OC)c1cccc(C)c1CO/N=C(\C)c1cc(C(F)(F)F)ccc1Cl [compound 200]
3. CO/N=C(/C(=O)OC)c1cccc(C)c1CO/N=C(\C)c1ccc(Cl)cc1C(F)(F)F [compound 304]
4. CNC(=O)/C(=N/OC)c1cccc(C)c1CO/N=C(\C)c1ccc(-c2ccccc2)cc1OC(F)(F)F [compound 435]
5. CNC(=O)/C(=N/OC)c1cccc(C)c1CO/N=C(\C)c1ccc(Cl)c(F)c1OC(F)(F)F [compound 449]
6. CNC(=O)/C(=N/OC)c1cccc(C)c1CO/N=C(\C)c1ccc(F)cc1Cl [compound 262]
7. CO/N=C(/c1cccc(/C(C)=N/OCc2c(C)cccc2/C(=N\OC)C(=O)OC)c1)C(F)(F)F [compound 70]

OUT:
55
100
100
87
57
47
10

For the 3 molecules below, give their % PHAKPA (F129L) Disease level P6 at 4 ppm values.
1. CC/C(=N\OCc1c(C)cccc1/C(=N\OC)C(=O)NC)c1cccc(C(F)(F)F)c1 [Ex. 188]
2. CNC(=O)/C(=N/OC)c1cccc(C)c1CO/N=C(\C)c1c(F)cc(Br)cc1C(F)(F)F [compound 358]
3. CO/N=C(/C(=O)OC)c1cccc(C)c1CO/N=C(\C)c1ccc(C#N)cc1C(F)(F)F [compound 423]

OUT:
11
83
93

---

tested on: Phakopsora pachyrhizi (F129L); experiment: Protective control of soybean rust on soybeans (PHAKPA P6); format: in vivo; conditions: protective P6, 4 ppm, soybean rust F129L
Assay Metric: % PHAKPA (F129L) Disease level P6 at 4 ppm (%)
Answers are plain numbers, in %.

IN: Provide measured % PHAKPA (F129L) Disease level P6 at 4 ppm value, entry: CCC/C(=N\OCc1c(C)cccc1/C(=N\OC)C(=O)NC)c1ccccc1 [compound 388]
OUT: 3

IN: Provide measured % PHAKPA (F129L) Disease level P6 at 4 ppm value, entry: CO/N=C(/C(=O)OC)c1cccc(C)c1CO/N=C(\C)c1ccccc1OC(F)F [compound 253]
OUT: 100

IN: Provide measured % PHAKPA (F129L) Disease level P6 at 4 ppm value, entry: CNC(=O)/C(=N/OC)c1cccc(C)c1CO/N=C(\COC)c1cccc(C(F)(F)F)c1 [compound 186]
OUT: 2

IN: Provide measured % PHAKPA (F129L) Disease level P6 at 4 ppm value, entry: C#Cc1cc(F)ccc1/C(C)=N/OCc1c(C)cccc1/C(=N\OC)C(=O)NC [compound 286]
OUT: 97

IN: Provide measured % PHAKPA (F129L) Disease level P6 at 4 ppm value, entry: CO/N=C(/C(=O)OC)c1cccc(C)c1CO/N=C(\C)c1cc(Br)cc(F)c1F [compound 240]
OUT: 73

For the 3 molecules below, give their % PHAKPA (F129L) Disease level P6 at 4 ppm values.
1. CNC(=O)/C(=N/OC)c1cccc(C)c1CO/N=C(\CC(C)C)c1cccc(C(F)(F)F)c1 [compound 235]
2. CC/C(=N\OCc1c(C)cccc1/C(=N\OC)C(=O)OC)c1cccc(C(F)(F)F)c1 [compound 204]
3. CO/N=C(/C(=O)OC)c1cccc(C)c1CO/N=C(\C)c1ccc(F)cc1 [compound 103]

OUT:
1. 87
2. 80
3. 35

---

system: Phakopsora pachyrhizi (F129L); experiment: Protective control of soybean rust on soybeans (PHAKPA P6); type: in vivo; settings: protective P6, 4 ppm, soybean rust F129L
Assay Metric: % PHAKPA (F129L) Disease level P6 at 4 ppm (%)
Answers are plain numbers, in %.

Solved cases below.
IN: Provide measured % PHAKPA (F129L) Disease level P6 at 4 ppm value, entry: CO/N=C(/C(=O)OC)c1cccc(C)c1CO/N=C(\C)c1c(F)cccc1C(F)(F)F
OUT: 97

IN: Provide measured % PHAKPA (F129L) Disease level P6 at 4 ppm value, entry: CO/N=C(/C(=O)OC)c1cccc(C)c1CO/N=C(\C)c1ccc(C)c(C(F)(F)F)c1
OUT: 77

IN: Provide measured % PHAKPA (F129L) Disease level P6 at 4 ppm value, entry: CNC(=O)/C(=N/OC)c1cccc(C)c1CO/N=C(\C)c1cccc(C(F)(F)F)c1
OUT: 5

IN: Provide measured % PHAKPA (F129L) Disease level P6 at 4 ppm value, entry: CNC(=O)/C(=N/OC)c1cccc(C)c1CO/N=C(\C)c1cccc(Cl)c1
OUT: 1

IN: Provide measured % PHAKPA (F129L) Disease level P6 at 4 ppm value, entry: CNC(=O)/C(=N/OC)c1cccc(C)c1CO/N=C(\C)c1cc(C(F)(F)F)cc(C(F)(F)F)c1
OUT: 73

For the 3 molecules below, give their % PHAKPA (F129L) Disease level P6 at 4 ppm values.
1. CO/N=C(/C(=O)OC)c1cccc(C)c1CO/N=C(\C)c1cccc(C(C)(C)C)c1
2. C=Cc1cc(/C(C)=N/OCc2c(C)cccc2/C(=N\OC)C(=O)OC)cc(C(F)(F)F)c1
3. CNC(=O)/C(=N/OC)c1cccc(C)c1CO/N=C(\C)c1cccc(/C(=N/OC)C(F)(F)F)c1

OUT:
1: 3; 2: 95; 3: 6

For the 4 molecules below, give their % PHAKPA (F129L) Disease level P6 at 4 ppm values.
1. CNC(=O)/C(=N/OC)c1cccc(C)c1CO/N=C(\C)c1cccc(F)c1C(F)(F)F
2. CNC(=O)/C(=N/OC)c1cccc(C)c1CO/N=C(\C)c1cc(C)ccc1C
3. CCc1ccccc1/C(C)=N/OCc1c(C)cccc1/C(=N\OC)C(=O)NC
4. CO/N=C(/C(=O)OC)c1cccc(C)c1CO/N=C(\C)c1c(F)cc(F)cc1F

OUT:
[30, 90, 100, 77]

For the 2 molecules below, give their % PHAKPA (F129L) Disease level P6 at 4 ppm values.
1. CNC(=O)/C(=N/OC)c1cccc(C)c1CO/N=C(\C)c1cccc(C(C)(C)C)c1
2. CO/N=C(/C(=O)OC)c1cccc(C)c1CO/N=C(\C)c1cc(Br)ccc1F

OUT:
25
35

For the 3 molecules below, give their % PHAKPA (F129L) Disease level P6 at 4 ppm values.
1. CO/N=C(/C(=O)OC)c1cccc(C)c1CO/N=C(\C)c1ccc(-c2cc(C)on2)cc1
2. CO/N=C(/C(=O)OC)c1cccc(C)c1CO/N=C(\C)c1cccc(OC)c1
3. CO/N=C(/C(=O)OC)c1cccc(C)c1CO/N=C(\C)c1ccccc1C1CC1

OUT:
1. 93
2. 30
3. 93

---

Record form. Attribute: % PHAKPA (F129L) Disease level P6 at 4 ppm. Fill in for each entry.
system: Phakopsora pachyrhizi (F129L); assay: Protective control of soybean rust on soybeans (PHAKPA P6); type: in vivo; settings: protective P6, 4 ppm, soybean rust F129L
Give bare numbers, in %.

Solved cases below.
IN: Provide measured % PHAKPA (F129L) Disease level P6 at 4 ppm value, entry: CNC(=O)/C(=N/OC)c1cccc(C)c1CO/N=C(\C)c1c(Cl)cccc1C(F)(F)F
OUT: 83

IN: Provide measured % PHAKPA (F129L) Disease level P6 at 4 ppm value, entry: CO/C=C(/C(=O)OC)c1cccc(C)c1CO/N=C(\C)c1c(Cl)ccc(Cl)c1OC(F)(F)F
OUT: 83

IN: Provide measured % PHAKPA (F129L) Disease level P6 at 4 ppm value, entry: CNC(=O)/C(=N/OC)c1cccc(C)c1CO/N=C(\C)c1ccc(C#N)cc1C(F)(F)F
OUT: 97

IN: Provide measured % PHAKPA (F129L) Disease level P6 at 4 ppm value, entry: CNC(=O)/C(=N/OC)c1cccc(C)c1CO/N=C(\C)c1ccc(C)cc1C(F)(F)F
OUT: 48

IN: Provide measured % PHAKPA (F129L) Disease level P6 at 4 ppm value, entry: CNC(=O)/C(=N/OC)c1cccc(C)c1CO/N=C(\C)c1c(Cl)ccc(F)c1OC(F)(F)F
OUT: 73

IN: Provide measured % PHAKPA (F129L) Disease level P6 at 4 ppm value, entry: CNC(=O)/C(=N/OC)c1cccc(C)c1CO/N=C(\C)c1ccccc1OC(F)F
OUT: 87

IN: Provide measured % PHAKPA (F129L) Disease level P6 at 4 ppm value, entry: CNC(=O)/C(=N/OC)c1cccc(C)c1CO/N=C(\C)c1c(Cl)ccc(Cl)c1OC(F)(F)F
OUT: 97

IN: Provide measured % PHAKPA (F129L) Disease level P6 at 4 ppm value, entry: CNC(=O)/C(=N/OC)c1cccc(C)c1CO/N=C(\C)c1ccc(OC(F)(F)F)cc1C
OUT: 87

IN: Provide measured % PHAKPA (F129L) Disease level P6 at 4 ppm value, entry: CNC(=O)/C(=N/OC)c1cccc(C)c1CO/N=C(\C)c1c(F)ccc(C(F)(F)F)c1NC
OUT: 87

IN: Provide measured % PHAKPA (F129L) Disease level P6 at 4 ppm value, entry: CO/N=C(/C(=O)OC)c1cccc(C)c1CO/N=C(\C)c1cccc(C(C)(F)F)c1
OUT: 47

For the 6 compounds below, give their % PHAKPA (F129L) Disease level P6 at 4 ppm values.
1. CNC(=O)/C(=N/OC)c1cccc(C)c1CO/N=C(\C)c1cc(F)c(F)cc1CC(F)(F)F
2. CO/N=C(/C(=O)OC)c1cccc(C)c1CO/N=C(\C)c1ccc(OC)cc1C(F)(F)F
3. CO/N=C(/C(=O)OC)c1cccc(C)c1CO/N=C(\C)c1ccc(C(C)=O)cc1
4. CO/N=C(/C(=O)OC)c1cccc(C)c1CO/N=C(\C)c1cc(Cl)ccc1C(F)(F)F
5. CO/N=C(/C(=O)OC)c1cccc(C)c1CO/N=C(\C)c1ccc(F)c(C(F)(F)F)c1
6. CO/N=C(/C(=O)OC)c1cccc(C)c1CO/N=C(/c1cccc(C(F)(F)F)c1)C(C)C

OUT:
1: 67; 2: 23; 3: 90; 4: 80; 5: 60; 6: 100
